As shown below, each of these compounds has a reported blood/plasma exposure value.
experiment description: Pharmacokinetics in mice after single oral dosing, blood and liver exposure by LC-MS
Assay type: in vivo, mice (C57/bl6/J)
cond: single oral dose 20 mg/kg, time point 4 h
Enter your answer as a number in µM; do not include the unit.

Known blood/plasma exposure results, listed for orientation:
Cc1ccc2ccccc2c1C(=O)N(Cc1ccc(-c2cccc(C(C)(C)C(=O)NO)c2)cc1)Cc1ccc(C(F)(F)F)o1 [5/3] : 0.08
Cc1ccc2ccccc2c1CN(Cc1ccc(C(F)(F)F)o1)Cc1ccc(-c2cncc(S(=O)(=O)CC(=O)O)c2)cc1Cl [26/8] : 0.01
Cc1cc(C)c(CN(Cc2ccc(-c3cc(F)c(CO)c(S(=O)(=O)CC(=O)O)c3)cc2)Cc2ccc(C(F)(F)F)o2)c(C)c1 [20/1] : 1.0

Fill in the blank: the reported blood/plasma exposure of Cc1ccc2ccccc2c1CN(Cc1ccc(-c2cccc(S(=O)(=O)CC(=O)O)c2)cc1)Cc1ccc(C(F)(F)F)o1 [Example 7/1] is ____.
0.21

Form field: reported blood/plasma exposure of CCOC(=O)c1ccc(CN(Cc2ccc(-c3cccc(C(C)(C)C(=O)O)c3)cc2)C(=O)c2c(C)ccc3ccccc23)o1 [27/28]
0.05

What value of blood/plasma exposure has been recorded for this entry: CC(C)(C(=O)O)c1cccc(-c2ccc(CN(Cc3ccc(C(F)(F)F)o3)Cc3c(C#N)ccc4ccccc34)cc2)c1 [27/67]
4.46

Could you share which blood/plasma exposure value was measured for Cc1ccc2ccccc2c1C(=O)N(Cc1ccc(C(F)(F)F)o1)Cc1ncc(-c2cccc(C(C)(C)C(=O)O)c2)cc1Cl [27/78] ?
0.35

Returns the measured blood/plasma exposure for the input compound. Input: Cc1ccc2ncccc2c1CN(Cc1ccc(-c2cccc(C(C)(C)C(=O)O)c2)cc1)Cc1ccc(C(F)(F)F)o1 [24/3]
1.22

Fill blank: measured blood/plasma exposure of the compound Cc1ccc2ccccc2c1C(=O)N(Cc1ccc(-c2cc(F)c(CO)c(S(=O)(=O)CC(=O)O)c2)cc1)Cc1ccc(C(F)(F)F)o1 [22/8] is ____.
1.3

What blood/plasma exposure value was documented for this compound, Cc1ccc2ccccc2c1C(=O)N(Cc1ccc(-c2cccc([C@@H](C)C(=O)O)c2)cc1)Cc1ccc(C(F)(F)F)o1 [10/5] ?
1.06

Looking for the measured blood/plasma exposure of N#Cc1ccc2ccccc2c1CN(Cc1ccc(-c2cccc(S(=O)(=O)CC(=O)O)c2)cc1)Cc1ccc(C(F)(F)F)o1 [7/7] , can you help?
0.01

I am curious: what blood/plasma exposure value has been reported for COc1cc(-c2cccc(C(C)(C)C(=O)O)c2)ccc1CN(Cc1ccc(C(F)(F)F)o1)Cc1c(C)ccc2ccccc12 [22/11] ?
0.57

What measured blood/plasma exposure goes with Cc1ccc2ccccc2c1C(=O)N(Cc1ccc(-c2cccc(S(=O)(=O)CC(=O)O)c2)cc1)Cc1ccc(C(F)(F)F)o1 [Example 9] ?
0.18

Given the entry COC(=O)CS(=O)(=O)c1cccc(-c2ccc(CN(Cc3ccc(C(F)(F)F)o3)C(C)c3cccc4ccccc34)cc2)c1 (centres unmarked) [Example 6] , report its measured blood/plasma exposure.
0.20

Entry source: patent US20200131144A1
